Target: T1, natriuretic peptide receptor-B (human)
T1 chain: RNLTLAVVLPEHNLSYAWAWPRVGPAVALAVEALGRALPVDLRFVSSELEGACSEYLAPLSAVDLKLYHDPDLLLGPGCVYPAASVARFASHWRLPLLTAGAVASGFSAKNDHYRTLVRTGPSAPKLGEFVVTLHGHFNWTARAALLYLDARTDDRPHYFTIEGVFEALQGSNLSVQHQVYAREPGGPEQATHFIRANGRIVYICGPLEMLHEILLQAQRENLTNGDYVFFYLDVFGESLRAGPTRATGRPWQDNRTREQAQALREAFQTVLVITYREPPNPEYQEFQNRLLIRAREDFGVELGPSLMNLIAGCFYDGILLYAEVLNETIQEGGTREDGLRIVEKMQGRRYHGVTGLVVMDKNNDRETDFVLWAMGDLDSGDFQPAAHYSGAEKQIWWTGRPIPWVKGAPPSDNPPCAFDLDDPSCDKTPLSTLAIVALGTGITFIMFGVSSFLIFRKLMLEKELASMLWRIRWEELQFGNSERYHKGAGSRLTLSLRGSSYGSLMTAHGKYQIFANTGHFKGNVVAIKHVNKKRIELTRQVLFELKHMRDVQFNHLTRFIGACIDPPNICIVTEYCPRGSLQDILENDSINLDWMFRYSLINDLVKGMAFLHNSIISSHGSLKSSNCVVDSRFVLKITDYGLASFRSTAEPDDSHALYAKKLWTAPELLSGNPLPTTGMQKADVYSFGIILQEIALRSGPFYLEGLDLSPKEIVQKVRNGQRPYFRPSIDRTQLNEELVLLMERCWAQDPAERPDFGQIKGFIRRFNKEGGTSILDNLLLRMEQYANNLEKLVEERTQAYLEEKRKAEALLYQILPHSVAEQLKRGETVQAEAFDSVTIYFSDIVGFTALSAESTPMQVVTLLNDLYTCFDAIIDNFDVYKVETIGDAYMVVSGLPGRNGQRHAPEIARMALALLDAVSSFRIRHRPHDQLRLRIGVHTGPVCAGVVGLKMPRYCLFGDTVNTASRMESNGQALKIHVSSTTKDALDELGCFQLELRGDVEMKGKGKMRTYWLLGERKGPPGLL
Assay: cell-based or functional assay
Numbered stars: 1 amine (or outer) side, 2 acyl side, 3 side chain; on linkers, the order of the positions; unused ones are H or OH. Square brackets hold non-standard residues; d marks the D form. Ends that are not written are not given here. * marks the point of attachment. Sni = (S)-nipecotic acid, O=C([C@H]1CCCN([*:1])C1)[*:2]; 5121 = 1-propyl-butyl-amine, CCCC(CCC)N*; Hyp = O=C(O)[C@@H]1C[C@@H](O)CN1; NMeL = CN[C@@H](CC(C)C)C(=O)O; AR‑201‑48 = not defined here; Octanoyl = CCCCCCCC(=O)*; 1906 = not defined here; Hexanoyl = CCCCCC(=O)*; Occ = octanoic acid
endpoint.name: EC50 group, cGMP in GTM-3 cells

Query: # EC50 group, cGMP in GTM-3 cells lookup, item Hexanoyl-S[dA]FGLKLDRI-NH2 [JAL-0633]
Response: ≤ 15 µM

Query: # EC50 group, cGMP in GTM-3 cells lookup, item [Occ][Sni]FLL[Hyp][NMeL]DP[1906] (not fully specified (residue 4); printed as Occ-Sni-Phe-leu-Leu-Hyp-Nml-Asp-Pro-1906; reading uncertain) [JAL-1511]
Response: ≤ 5 µM

Query: # EC50 group, cGMP in GTM-3 cells lookup, item [Occ][Sni]FLL[Hyp][NMeL]DP[5121] (not fully specified (residue 4); printed as Occ-Sni-Phe-leu-Leu-Hyp-Nml-Asp-Pro-5121) [JAL-1513]
Response: ≤ 15 µM

Query: # EC50 group, cGMP in GTM-3 cells lookup, item Octanoyl-[Sni]F[dL]LP[NMeL]DRI-NH2 [JAL-1040]
Response: ≤ 1 µM

Query: # EC50 group, cGMP in GTM-3 cells lookup, item [AR‑201‑48][dR]L[Hyp][NMeL]DRI-NH2 (reading uncertain; also: printed as (AR-201-48)-arg-Leu-Hyp-Nml-Asp-Arg-Ile-) [JAL-1291]
Response: ≤ 15 µM
